Entries annotated with measured GI50
- Test system: RXF 393
- assay.comment: NCI tumour cell line growth inhibition, 48 h
The source made the active and inactive calls. No stated cut-off is given here; in the data, active = GI50 up to about 1.1 µM and inactive = higher.

| compound | GI50 |
| --- | --- |
| O/N=C1\Nc2ccccc2OCc2cc(Br)c(Br)cc2COc2ccccc2N\C1=N/O | 16.6 µM (inactive) |
| CC1(Cl)C(=O)NC(=O)N([C@H]2C[C@H](O)[C@@H](CO)O2)C1N=[N+]=[N-] (stereo partly drawn) | > 100 µM (inactive) |
| CCCCCCOc1ccc(C(=O)N(C)O)cc1 | 13.1 µM (inactive) |
| O=C(Cc1ccccc1)NN1C(=O)/C(=C\c2ccccc2O)S/C1=N\c1ccccc1 | > 100 µM (inactive) |
| CCN(CC)CCC(=O)Nc1ccc2c(c1)C(=O)c1ccc(NC(=O)CCN(CC)CC)cc1C2=O | 2.11 µM (inactive) |
| COC(=O)NNc1c([N+](=O)[O-])cnn(-c2ccccc2)c1=O | 3.73 µM (inactive) |
| CC1=NN(c2nc(N)nc(/C(C#N)=C\C3COc4ccccc4C3=O)n2)C(C)(C)C1 (stereo not drawn) | 16.4 µM (inactive) |
| O=C(O)CCC(NC(=O)c1ccc(Nc2nc3ccc(C(F)(F)F)cc3nc2C(=O)O)cc1)C(=O)O (stereo not drawn) | > 100 µM (inactive) |
| CCSc1nnc(CSc2nc(-c3ccccc3)c(-c3ccccc3)[nH]2)n1-c1ccccc1 | 25.8 µM (inactive) |
| CCOc1cc(C2CC(c3ccc(NS(=O)(=O)c4cc([N+](=O)[O-])ccc4C)cc3)=NN2)ccc1O (stereo not drawn) | 18.6 µM (inactive) |
| OC(C#CCN1CCCC1)(c1ccccc1)c1ccccc1Cl (stereo not drawn) | 46.8 µM (inactive) |
| CCOC(=O)c1csc(NC(=O)C(C)N2CCCC2)n1 (stereo not drawn) | > 100 µM (inactive) |
| COc1ccccc1CC(C)N (stereo not drawn) | > 100 µM (inactive) |
| CC(C)Cc1c(C#N)c(C#N)c(N)n1Cc1ccccc1 | > 100 µM (inactive) |
| C/C(CC(O)(C(F)(F)F)C(F)(F)F)=N\NC(N)=O | > 10 µM (inactive) |
| Cc1cn(C2CC(N(O)Cc3ccccc3)C(CO)O2)c(=O)[nH]c1=O (stereo not drawn) | > 100 µM (inactive) |
| Clc1ccccc1C(Nc1ncccn1)Nc1ncccn1 | > 100 µM (inactive) |
| C[C@]12CCC3c4ccc(O)cc4CC[C@H]3C1CC(=O)N(CCN1CCCC1)C2=O (stereo partly drawn) | > 10 µM (inactive) |
| CC(=O)O[C@H]1C=CC(=O)C(C)CC1C (stereo partly drawn) | 42.6 µM (inactive) |
| Cc1sc2ccccc2[n+]1CCC(=O)O | > 100 µM (inactive) |
| COc1nc2c(c(=O)[nH]1)N=C(c1ccc(Cl)cc1)CC(c1ccccc1)N2 (stereo not drawn) | 23.9 µM (inactive) |
| COCC1C(=O)c2cc3c(cc2C12C=CC1(C=C2)OCCO1)OCO3 (stereo not drawn) | 8.85 µM (inactive) |
| O=C(NN=C1NCCCCN1)Nc1ccc(Cl)cc1 | > 100 µM (inactive) |
